# experiment description: Selectivity index, ratio of CC50 for cytotoxicity against HEp-2 cells to EC50 for antiviral activity against CVB3 infected in HEp-2 cells
# Type: toxicity, cell-based
# test parameters: human, read-out: Ratio CC50/EC50
reported endpoint: selectivity ratio

Reported selectivity ratio for COc1cc(CNC(=O)C23CCC(=O)N2c2ccccc2C(=O)N3)ccc1O (centres undefined) was 6.6

Memo: COC(=O)C(CCSC)NC(=O)C12CCC(=O)N1c1ccccc1C(=O)N2C (centres undefined) , reported selectivity ratio: 3.6

According to the records, this compound CC(NC(=O)C12CCC(=O)N1c1ccc(Cl)cc1C(=O)N2)c1ccccc1 (centres undefined) displays selectivity ratio of 2.3

Recorded result, CN1C(=O)c2ccccc2N2C(=O)CCC12C(=O)O (centres undefined) , selectivity ratio: 1.8

response.value for COC(=O)C(Cc1c[nH]c2ccccc12)NC(=O)C12CCC(=O)N1c1ccccc1C(=O)N2 (centres undefined) (field: selectivity ratio) = 4.1

Please fill in: selectivity ratio reported for O=C1NC2(C(=O)O)CCC(=O)N2c2ccc(Cl)cc21 (centres undefined) = 1.7

Entry COC(=O)C(Cc1c[nH]c2ccccc12)NC(=O)C12CCC(=O)N1c1ccccc1C(=O)N2C (centres undefined) — recorded selectivity ratio = 3.1

Noted for O=C1NC2(C(=O)O)CCC(=O)N2c2ccccc21 (centres undefined) : its selectivity ratio reads 2.1

For this compound ( O=C1NC2(C(=O)NCCc3c[nH]c4ccccc34)CCC(=O)N2c2ccccc21 (centres undefined) ), measured selectivity ratio is 2.8

* * *

# experiment description: Cytotoxicity against human HEp-2 cells incubated for 48 hrs by MTT assay
# Type: toxicity, cell-based
Entries annotated with measured CC50 at 48 h
Field: numeric (µM). Do not append units.

So for COC(=O)C(CCSC)NC(=O)C12CCC(=O)N1c1ccccc1C(=O)N2C (stereo unspecified) , the logged CC50 at 48 h turned out to be 200

Value of CC50 at 48 h reported for the compound CC(NC(=O)C12CCC(=O)N1c1ccccc1C(=O)N2)c1ccccc1 (stereo unspecified) is 205

The compound CS(=O)(=O)CCNC(=O)C12CCC(=O)N1c1ccc(Cl)cc1C(=O)N2 (stereo unspecified) showed CC50 at 48 h equal to 202

# compound COC(=O)C(Cc1c[nH]c2ccccc12)NC(=O)C12CCC(=O)N1c1ccccc1C(=O)N2C (stereo unspecified) ; its CC50 at 48 h = 202

* * *

# experiment description: Cytotoxicity against human HEp-2 cells incubated for 48 hrs by MTT assay
# Type: toxicity, cell-based
Threshold 200 µM. CC50 at 48 h below it: YES. CC50 at 48 h at it or above: NO.

The examples below pair each entry with its known result.
CC(NC(=O)C12CCC(=O)N1c1ccc(Cl)cc1C(=O)N2)c1ccccc1 (configuration not stated) : NO
CS(=O)(=O)CCNC(=O)C12CCC(=O)N1c1ccccc1C(=O)N2 (configuration not stated) : YES
O=C1NC2(C(=O)O)CCC(=O)N2c2ccc(Cl)cc21 (configuration not stated) : NO
COc1cc(CNC(=O)C23CCC(=O)N2c2ccc(Cl)cc2C(=O)N3)ccc1O (configuration not stated) : YES
COc1cc(CNC(=O)C23CCC(=O)N2c2ccccc2C(=O)N3)ccc1O (configuration not stated) : NO
CN1C(=O)c2ccccc2N2C(=O)CCC12C(=O)NCCc1c[nH]c2ccccc12 (configuration not stated) : NO
O=C1NC2(C(=O)O)CCC(=O)N2c2ccccc21 (configuration not stated) : NO
O=C1NC2(C(=O)NCCc3c[nH]c4ccccc34)CCC(=O)N2c2ccc(Cl)cc21 (configuration not stated) : YES

Exercise: Decide: CC50 at 48 h of CSCCNC(=O)C12CCC(=O)N1c1ccccc1C(=O)N2C (configuration not stated) strictly below 200 µM?
Solution: NO

Exercise: Determine if COC(=O)C(Cc1c[nH]c2ccccc12)NC(=O)C12CCC(=O)N1c1ccc(Cl)cc1C(=O)N2 (configuration not stated) shows CC50 at 48 h strictly lower than 200 µM.
Solution: YES
